B1: ZNF449 (parent)
chain: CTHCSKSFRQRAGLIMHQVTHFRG

Variants of: B1
Assay: protein stability index of a GFP-peptide fusion (GPS, HEK-293T) (PSI 1-6); higher = more stable;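 note: lentivirally expressed fusions sorted by FACS into six bins by GFP to DsRed ratio, PSI derived from sequencing read proportions per bin multiplied by bin number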
Conditions: c terminus: a fixed tail appended
// reported protein stability index per item
Enter a number only.

Examples with answers:
>>> df
   mutation_label  recorded_number
0             S5M             1.56
1            R11A             2.28
2            G13W             1.87
3            V19G             2.74

Shifting focus to the variant that follows.
[Q] // lookup protein stability index for I15K
[A] 2.36
